Target: human Farnesoid X receptor ligand-binding domain/Gal4 DNA binding domain chimera (Homo sapiens (Human))
Assay: Cell-based assay of FXR activation (FXR-UAS-bla HEK 293T beta-lactamase reporter)
Details: cellular FXR beta-lactamase reporter assay, FXR-UAS-bla HEK 293T cells, 16 h; pEC50 = -log EC50
Protocol: FXR activation was measured using a cell line and procedure obtained from Life Technologies (Cat # K1691). FXR-UAS-bla HEK 293T cells contain a human Farnesoid X receptor ligand-binding domain/Gal4 DNA binding domain chimera stably integrated into the CellSensor® UAS-bla HEK 293T cell line. […] Activation of FXR by bound ligands results in transcriptional activation of the beta-lactamase reporter gene, which is detected via assay of beta-lactamase activity. […]
measurement_label: pEC50
// pEC50 here means minus log10 of the molar concentration (mol/L)

Exam item: Requested field: pEC50. Item: `CCCS(=O)(=O)NC(=O)c1cnc(N2C[C@@H]3C[C@H]2C[C@H]3OCc2c(-c3c(Cl)cccc3Cl)noc2C2CC2)c(F)c1`
Marked response: 8.80

Exam item: Requested field: pEC50. Item: `O=C(O)c1ccc(N2C[C@@H]3C[C@H]2C[C@H]3OCc2c(-c3c(Cl)cccc3Cl)noc2C2CC2)cc1`
Marked response: 9.00

Exam item: Requested field: pEC50. Item: `Cc1cccc(C)c1-c1noc(C2CC2)c1CO[C@@H]1C[C@@H]2C[C@H]1CN2c1ccc(C(=O)O)cc1`
Marked response: 8.10

Exam item: Requested field: pEC50. Item: `O=C(NCCS(=O)(=O)O)c1ccc(N2C(=O)[C@@H]3C[C@H]2C[C@H]3OCc2c(-c3c(Cl)cccc3Cl)noc2C2CC2)cc1`
Marked response: 6.40

###

Please go through the items and note down their Emax.
target: ligand binding domain of human FXR (Homo sapiens (Human)); experiment: FXR ligand binding assay (LanthaScreen TR-FRET, SRC2-2 peptide recruitment); settings: extent of activation relative to GW4064; read-out: % Efficacy
Reply numerically in %, unit not repeated.

Exam item: Requested field: Emax. Item: `COc1cccc(-c2noc(C3CC3)c2CO[C@@H]2C[C@@H]3C[C@H]2CN3c2nc3c(F)cc(C(=O)O)cc3s2)c1`
Marked response: 70

Exam item: Requested field: Emax. Item: `O=C(NS(=O)(=O)C1CC1)c1cc(F)c2nc(N3C[C@@H]4C[C@H]3C[C@H]4OCc3c(-c4c(Cl)cccc4Cl)noc3C3CC3)sc2c1`
Marked response: 160

Exam item: Requested field: Emax. Item: `O=C(NS(=O)(=O)CC1CCOCC1)c1ccc(N2C(=O)[C@@H]3C[C@H]2C[C@H]3OCc2c(-c3c(Cl)cccc3Cl)noc2C2CC2)cc1F`
Marked response: 158

Exam item: Requested field: Emax. Item: `O=C(O)CCCc1ccc(N2C[C@@H]3C[C@H]2C[C@H]3OCc2c(-c3c(Cl)cccc3Cl)noc2C2CC2)cc1`
Marked response: 136

Exam item: Requested field: Emax. Item: `O=C(O)c1cc(F)c2nc(N3C[C@@H]4C[C@H]3C[C@H]4OC(=O)c3c(-c4c(Cl)cccc4Cl)noc3C3(F)CC3)sc2c1`
Marked response: 145

Exam item: Requested field: Emax. Item: `CC[C@@H]1[C@@H]2C[C@@H](C[C@H]2OCc2c(-c3c(Cl)cccc3Cl)noc2C2CC2)N1c1ccc(C(=O)O)cc1`
Marked response: 67

###

target: ligand binding domain of human FXR (Homo sapiens (Human), UniProt Q96RI1); assay: FXR ligand binding assay (LanthaScreen TR-FRET, SRC2-2 peptide recruitment); conditions: extent of activation relative to GW4064; read-out: % Efficacy
Sequence (Q96RI1 262-486): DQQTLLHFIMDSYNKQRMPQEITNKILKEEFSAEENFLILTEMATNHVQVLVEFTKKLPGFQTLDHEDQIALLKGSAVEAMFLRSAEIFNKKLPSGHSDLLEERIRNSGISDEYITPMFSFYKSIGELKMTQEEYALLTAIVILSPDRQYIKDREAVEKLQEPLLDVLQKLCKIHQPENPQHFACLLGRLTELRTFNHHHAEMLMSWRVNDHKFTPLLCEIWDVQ
measurement_label: Emax (%)
Reply numerically in %, unit not repeated.

Exam item: Requested field: Emax. Item: O=C(O)c1cc(OC(F)(F)F)c2nc(N3C[C@@H]4C[C@H]3C[C@H]4OCc3c(-c4c(Cl)cccc4Cl)noc3C3CC3)sc2c1 [Compound I-16]
Marked response: 174

Exam item: Requested field: Emax. Item: CCc1cc(C(=O)O)cc2sc(N3C[C@@H]4C[C@H]3C[C@H]4OCc3c(-c4c(Cl)cccc4Cl)noc3C3CC3)nc12 [Compound I-246]
Marked response: 136

Exam item: Requested field: Emax. Item: CS(=O)(=O)NC(=O)CCc1ccc(N2C[C@@H]3C[C@H]2C[C@H]3OCc2c(-c3c(F)cccc3Cl)noc2C2CC2)c(F)c1 [Compound I-239]
Marked response: 176

Exam item: Requested field: Emax. Item: Fc1cc(CCc2nn[nH]n2)ccc1N1C[C@@H]2C[C@H]1C[C@H]2OCc1c(-c2c(Cl)cccc2Cl)noc1C1CC1 [Compound I-162]
Marked response: 140

Exam item: Requested field: Emax. Item: CCc1cc(C(=O)O)ccc1N1C[C@@H]2C[C@H]1C[C@H]2OCc1c(-c2c(Cl)cccc2Cl)noc1C1CC1 [Compound I-109]
Marked response: 117

Exam item: Requested field: Emax. Item: O=C(CCc1ccc(N2C[C@@H]3C[C@H]2C[C@H]3OCc2c(-c3c(Cl)cccc3Cl)noc2C2CC2)c(F)c1)NS(=O)(=O)C1CCOCC1 [Compound I-238]
Marked response: 176

Exam item: Requested field: Emax. Item: CS(=O)(=O)NC(=O)c1ccc(N2C[C@@H]3C[C@H]2C[C@H]3OC(=O)c2c(-c3c(Cl)cccc3Cl)noc2C2CC2)cc1 [Compound I-45]
Marked response: 152

Exam item: Requested field: Emax. Item: O=C(O)c1cc(F)c(N2C[C@@H]3C[C@H]2C[C@H]3OCc2c(-c3c(Cl)cccc3Cl)noc2C2CC2)cc1F [Compound I-105]
Marked response: 142

Exam item: Requested field: Emax. Item: O=C(O)c1cc(F)c2nc(N3C[C@@H]4C[C@H]3C[C@@H]4OCc3c(-c4c(Cl)cccc4Cl)noc3C3CC3)sc2c1 [Compound I-37]
Marked response: 0

Exam item: Requested field: Emax. Item: CCCCCCCCS(=O)(=O)NC(=O)c1ccc(N2C[C@@H]3C[C@H]2C[C@H]3OCc2c(-c3c(Cl)cccc3Cl)noc2C2CC2)c(F)c1 [Compound I-192]
Marked response: 152

Exam item: Requested field: Emax. Item: CC(=O)OCCCS(=O)(=O)NC(=O)c1ccc(N2C[C@@H]3C[C@H]2C[C@H]3OCc2c(-c3c(Cl)cccc3Cl)noc2C2CC2)cc1 [Compound I-214]
Marked response: 138

Exam item: Requested field: Emax. Item: CCOc1cc(C(=O)O)cc2sc(N3C[C@@H]4C[C@H]3C[C@H]4OC(=O)c3c(-c4c(Cl)cccc4Cl)noc3C3CC3)nc12 [Compound I-8]
Marked response: 137

###

Target: human Farnesoid X receptor ligand-binding domain/Gal4 DNA binding domain chimera (Homo sapiens (Human), UniProt Q96RI1)
Sequence (Q96RI1 262-486, change not shown): as the sequence (Q96RI1 262-486) above
Sequence (P04386 1-147 partner): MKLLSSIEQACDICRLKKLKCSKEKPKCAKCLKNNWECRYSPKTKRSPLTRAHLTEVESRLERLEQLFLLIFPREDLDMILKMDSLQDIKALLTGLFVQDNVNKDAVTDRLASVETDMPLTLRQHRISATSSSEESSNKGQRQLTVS
Assay: Cell-based assay of FXR activation (FXR-UAS-bla HEK 293T beta-lactamase reporter)
Details: HEK-293T; extent of activation relative to GW4064; cellular FXR beta-lactamase reporter assay; read-out: % Efficacy
Protocol: FXR activation was measured using a cell line and procedure obtained from Life Technologies (Cat # K1691). FXR-UAS-bla HEK 293T cells contain a human Farnesoid X receptor ligand-binding domain/Gal4 DNA binding domain chimera stably integrated into the CellSensor® UAS-bla HEK 293T cell line. […] Activation of FXR by bound ligands results in transcriptional activation of the beta-lactamase reporter gene, which is detected via assay of beta-lactamase activity. […]
Please go through the items and note down their Emax.
Reply numerically in %, unit not repeated.

Exam item: Requested field: Emax. Item: `O=C(O)c1cc(O[C@H]2CCOC2)c2nc(N3C[C@@H]4C[C@H]3C[C@H]4OCc3c(-c4c(F)cccc4Cl)noc3C3CC3)sc2c1`
Marked response: 102

Exam item: Requested field: Emax. Item: `O=C(O)c1cc(C2CCC2)c2nc(N3C[C@H]4C[C@@H]3C[C@@H]4OCc3c(-c4c(Cl)cccc4Cl)noc3C3CC3)sc2c1`
Marked response: 100

Exam item: Requested field: Emax. Item: `O=C(NS(=O)(=O)C1CCOCC1)c1ccc(N2C(=O)[C@@H]3C[C@H]2C[C@H]3OCc2c(-c3c(Cl)cccc3Cl)noc2C2CC2)cc1F`
Marked response: 100

Exam item: Requested field: Emax. Item: `CCCS(=O)(=O)NC(=O)c1cc(F)c2nc(N3C[C@@H]4C[C@H]3C[C@H]4OCc3c(-c4c(Cl)cccc4Cl)noc3C3CC3)sc2c1`
Marked response: 118

Exam item: Requested field: Emax. Item: `Cc1cc(C(=O)NCCP(=O)(OCOC(=O)C(C)(C)C)OCOC(=O)C(C)(C)C)ccc1N1C[C@@H]2C[C@H]1C[C@H]2OCc1c(-c2c(Cl)cccc2Cl)noc1C1CC1`
Marked response: 152

Exam item: Requested field: Emax. Item: `O=C(NCCS(=O)(=O)C1CCOCC1)c1ccc(N2C[C@@H]3C[C@H]2C[C@H]3OCc2c(-c3c(Cl)cccc3Cl)noc2C2CC2)cc1F`
Marked response: 110

Exam item: Requested field: Emax. Item: CC1(C)CC(S(=O)(=O)NC(=O)c2ccc(N3C(=O)[C@@H]4C[C@H]3C[C@H]4OCc3c(-c4c(Cl)cccc4Cl)noc3C3CC3)cc2F)CCO1 (stereo partly drawn)
Marked response: 120

Exam item: Requested field: Emax. Item: `Cc1cccc(Cl)c1-c1noc(C2(F)CC2)c1CO[C@@H]1C[C@@H]2C[C@H]1CN2c1ccc(C(=O)O)c(F)c1`
Marked response: 105

Exam item: Requested field: Emax. Item: `O=C(O)C1(c2ccc(N3C[C@@H]4C[C@H]3C[C@H]4OCc3c(-c4c(Cl)cccc4Cl)noc3C3CC3)cc2)CC1`
Marked response: 101

Exam item: Requested field: Emax. Item: `Cc1cccc(Cl)c1-c1noc(C2CC2)c1CO[C@@H]1C[C@@H]2C[C@H]1CN2c1nc2c([C@H]3CCOC3)cc(C(=O)O)cc2s1`
Marked response: 105

Exam item: Requested field: Emax. Item: `COc1ccccc1-c1noc(C2CC2)c1CO[C@@H]1C[C@@H]2C[C@H]1CN2c1nc2c(F)cc(C(=O)O)cc2s1`
Marked response: 112

Exam item: Requested field: Emax. Item: `O=C(O)c1cc(OC(F)(F)F)c2nc(N3C[C@@H]4C[C@H]3C[C@H]4OCc3c(-c4ccccc4C(F)(F)F)noc3C3CC3)sc2c1`
Marked response: 113

Exam item: Requested field: Emax. Item: `Cc1cccc(Cl)c1-c1noc(C2CC2)c1CO[C@@H]1C[C@@H]2C[C@H]1CN2c1nc2c(O[C@H]3CCOC3)cc(C(=O)O)cc2s1`
Marked response: 100

Exam item: Requested field: Emax. Item: `O=C(NS(=O)(=O)C1CCOCC1)c1ccc(N2C[C@@H]3C[C@H]2C[C@H]3OCc2c(-c3c(Cl)cccc3Cl)noc2C2CC2)cc1`
Marked response: 106

Exam item: Requested field: Emax. Item: `O=C(O)c1cc(F)c2nc(N3C[C@@H]4C[C@H]3C[C@H]4OC(=O)c3c(-c4c(Cl)cccc4Cl)noc3C3(F)CC3)sc2c1`
Marked response: 111

Exam item: Requested field: Emax. Item: `O=C(NS(=O)(=O)[C@@H]1CCC[C@H]1O)c1ccc(N2C(=O)[C@@H]3C[C@H]2C[C@H]3OCc2c(-c3c(Cl)cccc3Cl)noc2C2CC2)cc1F`
Marked response: 133

Exam item: Requested field: Emax. Item: `O=C(O)c1ccc(N2C[C@H]3C[C@@H]2C[C@@H]3OCc2c(-c3c(Cl)cccc3Cl)noc2C2CC2)c(F)c1`
Marked response: 94

Exam item: Requested field: Emax. Item: `O=C(NCc1nn[nH]n1)c1ccc(N2C[C@@H]3C[C@H]2C[C@H]3OCc2c(-c3c(Cl)cccc3Cl)noc2C2CC2)cc1`
Marked response: 118

Exam item: Requested field: Emax. Item: `Cc1cccc(Cl)c1-c1noc(C2CC2)c1CO[C@@H]1C[C@@H]2C[C@H]1CN2c1ccc(C(=O)O)cc1`
Marked response: 103

Exam item: Requested field: Emax. Item: `CC(C)c1cc(C(=O)O)cc2sc(N3C[C@@H]4C[C@H]3C[C@H]4OCc3c(-c4c(Cl)cccc4Cl)noc3C3CC3)nc12`
Marked response: 114

Exam item: Requested field: Emax. Item: `O=CN(O)Cc1ccc(N2C[C@@H]3C[C@H]2C[C@H]3OCc2c(-c3c(Cl)cccc3Cl)noc2C2CC2)cc1`
Marked response: 102

Exam item: Requested field: Emax. Item: `O=C(NS(=O)(=O)[C@@H]1CCC[C@H]1O)c1ccc(N2C(=O)[C@@H]3C[C@H]2C[C@H]3OCc2c(-c3c(Cl)cccc3Cl)noc2C2CC2)cc1`
Marked response: 132

Exam item: Requested field: Emax. Item: `CCCS(=O)(=O)NC(=O)c1cnc(N2C[C@@H]3C[C@H]2C[C@H]3OCc2c(-c3c(Cl)cccc3Cl)noc2C2CC2)c(F)c1`
Marked response: 104

Exam item: Requested field: Emax. Item: `Cc1cc(C(=O)O)ccc1N1C[C@@H]2C[C@H]1C[C@H]2OCc1c(-c2c(Cl)cccc2Cl)noc1C1CC1`
Marked response: 102

# credit: patent US10793568B2
